Molecular target: T1, Claudin 18.2 (CLDN18.2), expressed on CHOS-CLDN 18.2 / HEK293-CLDN 18.2 / HCC827-CLDN 18.2 cells (human, UniProt P56856-2 1-261)
T1 construct: whole, on cells; The species is not repeated for the CHOS-CLDN 18.2 cells; also called claudin-18A2
Assay: FACS, CHOS-CLDN18.2 cells
ASSAY METRIC: EC50 (µg/mL)
Your answer should be a plain number; it is taken to be in µg/mL.

Observe how each entry below is paired with its result.
>  <BINDER>
QP14371435 (antibody, human IgG1, kappa, V domains shown, Humanized from QP190191) VH: EVQLVESGGGLVKPGGSLRLSCAASGFTFSNYAMSWVRQAPGKGLEWVASIISGGRTYYLDSEKGRFTISRDNAKNSLYLQMNSLRAEDTAVYYCTRIYYGNSFDYWGQGTLVTVSS VL: DIVMTQSPDSLAVSLGERATISCKSSQSLLNSGNQKNYLTWYQQKPGQPPKLLIYWASTRESGVPDRFTGSGSGTDFTLTISSLQAEDVAVYYCQNDYSYPFTFGQGTKLEIKR

>  <TEST RESULT>
0.38

$$$$
>  <BINDER>
QP190191 (antibody, human IgG1, V domains shown, Chimeric; also called 36A2; mouse-derived chimeric antibody QP190191) VH: EVKLVESGGGLVKPGGSLKLSCAASGFTFSNYAMSWVRQTPEKRLEWVASIISGGRTYYLDSEKGRFTISRDNARNNLYLQMSSLRSEDTAMYYCTRIYYGNSFDYWGQGTTLTVSS VL: DIVMTQSPSSQTVTAGEKVTMSCKSSQSLLNSGNQKNYLTWYQQKPGQPPKLLIYWASTRESGVPDRFTGSGSGTDFTLTISNMQAEDLAVYYCQNDYSYPFTFGSGTKLEIK

>  <TEST RESULT>
0.354

$$$$
>  <BINDER>
QP14361435 (antibody, human IgG1, kappa, V domains shown, Humanized from QP190191) VH: EVQLVESGGGLVKPGGSLRLSCAASGFTFSNYAMSWVRQAPGKGLEWVSSIISGGRTYYLDSEKGRFTISRDNAKNSLYLQMNSLRAEDTAVYYCTRIYYGNSFDYWGQGTLVTVSS VL: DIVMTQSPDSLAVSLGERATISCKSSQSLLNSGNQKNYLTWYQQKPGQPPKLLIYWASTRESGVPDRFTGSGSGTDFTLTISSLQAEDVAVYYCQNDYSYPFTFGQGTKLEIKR

>  <TEST RESULT>
0.466

$$$$

Lookup: // EC50 lookup, key: QP14371433 (antibody, human IgG1, kappa, V domains shown, Humanized from QP190191; also called QP14331437) VH: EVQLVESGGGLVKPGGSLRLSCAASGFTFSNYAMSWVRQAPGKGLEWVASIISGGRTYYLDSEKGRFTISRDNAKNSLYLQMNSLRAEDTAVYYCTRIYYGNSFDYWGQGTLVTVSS VL: DIVMTQSPDSLAVSLGERATINCKSSQSLLNSGNQKNYLTWYQQKPGQPPKLLIYWASTRESGVPDRFSGSGSGTDFTLTISSLQAEDVAVYYCQNDYSYPFTFGQGTKLEIKR
Found: 0.36
